assay.system: MerTK (Homo sapiens, UniProt Q12866)
Construct: Seed HUVECs (10K cells/well) in EBM-2 complete media
Sequence (Q12866 21-999): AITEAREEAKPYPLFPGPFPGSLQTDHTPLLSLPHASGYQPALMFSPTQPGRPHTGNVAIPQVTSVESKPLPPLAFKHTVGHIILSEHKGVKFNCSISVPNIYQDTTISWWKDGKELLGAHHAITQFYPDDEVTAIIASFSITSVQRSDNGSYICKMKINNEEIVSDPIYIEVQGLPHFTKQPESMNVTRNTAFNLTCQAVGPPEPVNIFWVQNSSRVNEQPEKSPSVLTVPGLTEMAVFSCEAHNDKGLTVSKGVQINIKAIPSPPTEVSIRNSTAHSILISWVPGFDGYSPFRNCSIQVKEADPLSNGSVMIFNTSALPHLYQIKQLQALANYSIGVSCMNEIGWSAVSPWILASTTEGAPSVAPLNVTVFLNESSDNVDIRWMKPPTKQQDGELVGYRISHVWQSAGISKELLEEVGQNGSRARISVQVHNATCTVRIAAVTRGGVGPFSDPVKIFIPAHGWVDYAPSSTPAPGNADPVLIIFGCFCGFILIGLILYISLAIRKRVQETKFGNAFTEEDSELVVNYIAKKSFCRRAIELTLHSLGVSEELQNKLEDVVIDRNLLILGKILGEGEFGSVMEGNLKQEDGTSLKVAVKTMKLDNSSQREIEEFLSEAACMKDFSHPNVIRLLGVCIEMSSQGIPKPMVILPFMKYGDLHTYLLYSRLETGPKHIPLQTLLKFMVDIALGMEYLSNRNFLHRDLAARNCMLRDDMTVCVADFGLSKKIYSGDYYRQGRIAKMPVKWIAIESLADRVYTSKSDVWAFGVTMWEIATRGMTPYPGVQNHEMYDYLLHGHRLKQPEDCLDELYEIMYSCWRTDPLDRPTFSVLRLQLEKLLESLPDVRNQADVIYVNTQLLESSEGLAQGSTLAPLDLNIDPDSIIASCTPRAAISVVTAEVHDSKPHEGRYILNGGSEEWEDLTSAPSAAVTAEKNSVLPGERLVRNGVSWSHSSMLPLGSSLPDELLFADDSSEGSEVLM
protocol.notes: PAKT HTRF-HUVEC assay (pAkt Ser473 HTRF after anti-human MerTK-XL stimulation)
condition.description: HUVEC cells, 1 hour compound, stimulated with anti-human MerTK-XL 1 ug/mL for 10 minutes, read-out: inhibition of MerTK
Exercise: state measured EC50 for each of the compounds provided.
Note: unit nM is implicit; provide only the numeric part.

Determine its reported EC50: O=c1c2cc(CN3CCC(N4CCCC4)CC3)ccc2c2cnc(NCC3CC3)nc2n1[C@H]1CC[C@H](O)CC1 [Compound 149]
53.8

Determine its reported EC50: CCCCNc1ncc2c3ccc(N4CCN(C)CC4)cc3c(=O)n(C3CC4(CC(O)C4)C3)c2n1 (centres unmarked) [Compound 88]
51

Determine its reported EC50: CCCCNc1ncc2c3ccc(N4C[C@@H](C)N(C)C[C@@H]4C)cc3c(=O)n(C3CCC(=O)CC3)c2n1 [Compound 79]
156

Determine its reported EC50: CCOC(=O)C1CCN(Cc2ccc3c(c2)c(=O)n([C@H]2CC[C@H](O)CC2)c2nc(NCC4CC4)ncc32)CC1 [Compound 50]
25.9

Determine its reported EC50: CN1CCN(c2ccc3c(c2)c(=O)n([C@H]2CC[C@H](O)CC2)c2nc(NCCCC(F)(F)F)ncc32)CC1 [Compound 95]
3920

Determine its reported EC50: CN1CCN(c2ccc3c(c2)c(=O)n([C@H]2CC[C@H](O)CC2)c2nc(NCCC4CC4)ncc32)CC1 [Compound 96]
41.4

Determine its reported EC50: CCCCNc1ncc2c3ccc(N4CCNCC4)cc3c(=O)n(C3CCC(=O)CC3)c2n1 [Compound 84]
288

Determine its reported EC50: O=c1c2cc(CC3CCN(c4ccncc4)CC3)ccc2c2cnc(NCC3CC3)nc2n1[C@H]1CC[C@H](O)CC1 [Compound 218]
24.2

Determine its reported EC50: CCCCNc1ncc2c3ccc(N4CCNCC4)cc3c(=O)n([C@H]3CC[C@H](O)CC3)c2n1 [Compound 83]
31.8

Determine its reported EC50: O=c1c2cc(CN3CCC(c4nnn[nH]4)CC3)ccc2c2cnc(NCC3CC3)nc2n1C1CCC(O)CC1 (centres unmarked) [Compound 143]
13500

Determine its reported EC50: O=c1c2cc(CN3CCN(C4COC4)CC3)ccc2c2cnc(NCC3CC3)nc2n1[C@H]1CC[C@H](O)CC1 [Compound 147]
46.7

Determine its reported EC50: CC1(O)CCC(n2c(=O)c3cc(CN4CCOCC4)ccc3c3cnc(NCC4CC4)nc32)CC1 (centres unmarked) [Compound 156]
116

Determine its reported EC50: CCCCNc1ncc2c3ccc(N4C[C@@H](C)N(C)C[C@@H]4C)cc3c(=O)n([C@H]3CC[C@H](O)CC3)c2n1 [Compound 78]
9

Determine its reported EC50: CN1CCC(n2c(=O)c3cc(CN4CCN(C)CC4)ccc3c3cnc(NCC4CC4)nc32)CC1 [Compound 136]
320

Determine its reported EC50: CC(C)(C)OC(=O)N1CCC(Cc2ccc3c(c2)c(=O)n([C@H]2CC[C@H](O)CC2)c2nc(NCC4CC4)ncc32)CC1 [Compound 206]
1280

Determine its reported EC50: CCCCNc1ncc2c3ccc(N4CCN(C)CC4)cc3c(=O)n([C@H]3CC[C@@H](O)CC3)c2n1 [Compound 63]
138

Determine its reported EC50: O=c1c2cc(CN3CCC(c4ccncc4)CC3)ccc2c2cnc(NCC3CC3)nc2n1[C@H]1CC[C@H](O)CC1 [Compound 217]
4.1

Determine its reported EC50: CCCCNc1ncc2c3ccc(N4CCOCC4)cc3c(=O)n([C@H]3CC[C@H](O)CC3)c2n1 [Compound 62]
95.2

Determine its reported EC50: CN1CCN(Cc2ccc3c(c2)c(=O)n([C@H]2CC[C@H](O)CC2)c2nc(NC4CCC4)ncc32)CC1 [Compound 137]
19.6

Determine its reported EC50: CCCCNc1ncc2c3ccc(CN4CCN(C)CC4)cc3c(=O)n([C@H]3CC[C@H](C(=O)NCC(F)(F)F)CC3)c2n1 [Compound 139]
134
